# target-under-test: human Autotaxin (ATX) (Homo sapiens, UniProt Q13822)
# Construct: used as template in overlapping PCR to generate a full length human ENPP2 ORF with or without a 3′-6×His tag; 6xHis (C)
# assay: Human ATX enzyme inhibition assay (LPC substrate, choline oxidase/HRP/Amplex Red coupled format)
# measurement-setup: recombinant hATX 1 nM, 18:1 LPC 30 μM, fluorescence at 90 min minus 5 min
Attribute: log10 IC50
Scale: log10; quantity: IC50; unit before log: nM

Example entries and their recorded answers appear below.
Cc1cc(Cl)cc2c1CC(Nc1ncc(C(=O)N3CCC34COC4)cn1)C2 (stereo not shown) [Example 2] ... 1.79
O=C(c1cnc(NC2Cc3cc(Cl)cc(Cl)c3C2)nc1)N1CCC12COC2 (stereo not shown) [Example 1] ... 1.11
O=C(c1cnc(NC2Cc3cccc(Cl)c3C2)nc1)N1CCC12COC2 (stereo not shown) [Example 15] ... 2.45
N#Cc1cc(Cl)cc2c1C[C@@H](Nc1ncc(C(=O)N3CCC34COC4)cn1)C2 [Example 11] ... 0.87
CC1(C)CCN1C(=O)c1cnc(N[C@H]2Cc3cc(Cl)cc(C#N)c3C2)nc1 [Example 12] ... 0.81

Tell me the measured log10 IC50 of C[C@]1(O)C[C@]2(CCN2C(=O)c2cnc(N[C@H]3Cc4cc(Cl)cc(C#N)c4C3)nc2)C1 [Example 14] , please.
0.74

Tell me the measured log10 IC50 of O=C(c1cnc(NC2Cc3ccc(Cl)c(F)c3C2)nc1)N1CCC12COC2 (stereo not shown) [Example 9] , please.
2.09

Tell me the measured log10 IC50 of CC#Cc1cc(Cl)cc2c1CC(Nc1ncc(C(=O)N3CCC34COC4)cn1)C2 (stereo not shown) [Example 7] , please.
1.37

Tell me the measured log10 IC50 of O=C(c1cnc(NC2Cc3cc(Cl)cc(C(F)(F)F)c3C2)nc1)N1CCC12COC2 (stereo not shown) [Example 10] , please.
2.26

Tell me the measured log10 IC50 of O=C(c1cnc(NC2Cc3cc(Cl)cc(OC(F)F)c3C2)nc1)N1CCC12COC2 (stereo not shown) [Example 5] , please.
2.35

Tell me the measured log10 IC50 of Cc1c(Cl)ccc2c1CC(Nc1ncc(C(=O)N3CCC34COC4)cn1)C2 (stereo not shown) [Example 6] , please.
2.00
